Data provenance is ChEMBL document CHEMBL1130072.

# tested-on: Amine oxidase [flavin-containing] A (Homo sapiens, UniProt P21397)
# Sequence (P21397 whole entry): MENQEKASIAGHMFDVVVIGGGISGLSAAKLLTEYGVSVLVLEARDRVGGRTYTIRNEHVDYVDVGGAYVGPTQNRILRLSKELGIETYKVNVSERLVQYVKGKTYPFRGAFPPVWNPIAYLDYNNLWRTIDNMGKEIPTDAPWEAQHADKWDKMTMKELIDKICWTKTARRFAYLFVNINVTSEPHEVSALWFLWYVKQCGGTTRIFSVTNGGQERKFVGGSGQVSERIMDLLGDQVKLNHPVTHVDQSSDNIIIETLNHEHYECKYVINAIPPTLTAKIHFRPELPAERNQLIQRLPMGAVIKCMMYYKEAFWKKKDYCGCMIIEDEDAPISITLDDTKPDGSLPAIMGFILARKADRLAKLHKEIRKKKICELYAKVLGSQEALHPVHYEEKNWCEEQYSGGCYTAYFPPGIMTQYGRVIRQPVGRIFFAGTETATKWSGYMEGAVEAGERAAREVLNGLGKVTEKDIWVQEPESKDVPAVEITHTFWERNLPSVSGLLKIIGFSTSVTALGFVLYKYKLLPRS
# experimental-protocol: Tested for maximum velocity of monoamine oxidase A catalyzed oxidation
# Parameters: unit not given here
assay-metric: Vmax
Give bare numbers.

Check out these entries, answers already filled in.
## Input Lab note: need Vmax for CN1CC=C(c2ccccc2)CC1 on Amine oxidase [flavin-containing] A (Homo sapiens, UniProt P21397), anyone have it?
## Output 20

## Input Lab note: need Vmax for CN1CC=C(c2cccc3ccccc23)CC1 on Amine oxidase [flavin-containing] A (Homo sapiens, UniProt P21397), anyone have it?
## Output 526

## Input Lab note: need Vmax for CN1CC=C(c2ccccc2-c2ccccc2)CC1 on Amine oxidase [flavin-containing] A (Homo sapiens, UniProt P21397), anyone have it?
## Output 107

// below: Vmax requested for another compound
## Input Lab note: need Vmax for CN1CC=C(c2ccc3ccccc3c2)CC1 on Amine oxidase [flavin-containing] A (Homo sapiens, UniProt P21397), anyone have it?
## Output 204

###

Answer each item with its documented Selectivity coefficient.
# tested-on: Monoamine oxidase (Homo sapiens, UniProt P21397+P27338)
# experimental-protocol: Selectivity Coefficient measured as ratio of Vmax/Km value of MAO-B to that of MAO-A
# Assay type: protein assay
Answers are plain numbers.

Check out these entries, answers already filled in.
## Input Consider the molecule CN1CC=C(c2ccccc2)CC1 and give its measured Selectivity coefficient.
## Output 3.65

## Input Consider the molecule Cc1ccccc1C1=CCN(C)CC1 and give its measured Selectivity coefficient.
## Output 2.19

Quick batch: Selectivity coefficient for everything below.
1. Cc1cccc(C2=CCN(C)CC2)c1
2. CC(C)c1ccccc1C1=CCN(C)CC1
3. CCc1ccccc1C1=CCN(C)CC1

## Output
1: 8.5; 2: 0.05; 3: 0.43

###

# tested-on: Amine oxidase [flavin-containing] B (Homo sapiens)
# Sequence (P27338 whole entry): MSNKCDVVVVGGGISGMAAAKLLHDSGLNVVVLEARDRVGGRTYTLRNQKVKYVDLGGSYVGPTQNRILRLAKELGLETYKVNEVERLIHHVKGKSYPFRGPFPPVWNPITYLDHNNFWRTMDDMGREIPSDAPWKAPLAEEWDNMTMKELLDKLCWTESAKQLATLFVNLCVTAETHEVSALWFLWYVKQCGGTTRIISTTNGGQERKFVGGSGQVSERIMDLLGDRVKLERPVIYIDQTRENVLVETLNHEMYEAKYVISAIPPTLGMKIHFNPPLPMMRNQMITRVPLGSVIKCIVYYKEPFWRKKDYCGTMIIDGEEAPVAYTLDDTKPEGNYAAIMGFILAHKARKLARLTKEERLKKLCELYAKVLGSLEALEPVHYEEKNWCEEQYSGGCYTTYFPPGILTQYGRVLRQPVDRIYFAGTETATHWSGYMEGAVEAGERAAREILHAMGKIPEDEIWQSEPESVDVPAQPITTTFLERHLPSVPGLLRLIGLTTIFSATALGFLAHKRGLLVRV
# experimental-protocol: Vmax/Km values for MAO-B
# Design: unit not given here
assay-metric: Ratio
Numbers only.

Check out these entries, answers already filled in.
## Input Consider the compound CN1CC=C(c2ccccc2-c2ccccc2)CC1 and give its measured Ratio.
## Output 12

## Input Consider the compound CN1CC=C(c2cccc(-c3ccccc3)c2)CC1 and give its measured Ratio.
## Output 157

## Input Consider the compound CN1CC=C(c2ccc3ccccc3c2)CC1 and give its measured Ratio.
## Output 71

## Input Consider the compound CN1CC=C(c2ccccc2)CC1 and give its measured Ratio.
## Output 523

// below: Ratio requested for another compound
## Input Consider the compound CN1CC=C(c2cccc3ccccc23)CC1 and give its measured Ratio.
## Output 364

###

Answer each item with its documented Vmax.
# tested-on: Amine oxidase [flavin-containing] B (Bos taurus)
# Sequence (P56560 whole entry): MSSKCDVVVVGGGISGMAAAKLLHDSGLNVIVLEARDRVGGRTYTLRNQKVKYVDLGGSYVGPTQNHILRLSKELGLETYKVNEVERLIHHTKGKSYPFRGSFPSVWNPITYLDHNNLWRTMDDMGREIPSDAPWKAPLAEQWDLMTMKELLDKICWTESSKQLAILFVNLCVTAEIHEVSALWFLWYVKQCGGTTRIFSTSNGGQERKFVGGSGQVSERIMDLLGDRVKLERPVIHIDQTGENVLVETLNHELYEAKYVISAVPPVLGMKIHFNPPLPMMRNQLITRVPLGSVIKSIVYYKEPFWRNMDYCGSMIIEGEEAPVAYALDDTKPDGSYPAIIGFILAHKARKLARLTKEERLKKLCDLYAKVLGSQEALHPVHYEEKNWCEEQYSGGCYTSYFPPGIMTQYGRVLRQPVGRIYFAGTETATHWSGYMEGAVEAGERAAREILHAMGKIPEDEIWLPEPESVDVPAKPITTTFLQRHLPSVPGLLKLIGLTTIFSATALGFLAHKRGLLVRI
# experimental-protocol: Tested for maximum velocity of monoamine oxidase B catalyzed oxidation
# Parameters: unit not given here
Give bare numbers.

Check out these entries, answers already filled in.
## Input Consider the compound CN1CC=C(c2c[nH]c3ccccc23)CC1.O=C(O)C(=O)O and give its measured Vmax.
## Output 358

## Input Consider the compound CN1CC=C(c2cccc3ccccc23)CC1 and give its measured Vmax.
## Output 51

## Input Consider the compound CN1CC=C(c2ccc3ccccc3c2)CC1 and give its measured Vmax.
## Output 42

## Input Consider the compound CN1CC=C(c2cccc(-c3ccccc3)c2)CC1 and give its measured Vmax.
## Output 153

## Input Consider the compound CN1CC=C(c2ccccc2-c2ccccc2)CC1 and give its measured Vmax.
## Output 20

// below: Vmax requested for another compound
## Input Consider the compound CN1CC=C(c2ccccc2)CC1 and give its measured Vmax.
## Output 204

###

# tested-on: Amine oxidase [flavin-containing] A (Homo sapiens, UniProt P21397)
# experimental-protocol: Vmax/Km values for MAO-A
# Parameters: unit not given here
assay-metric: Ratio
Answers are plain numbers.

Check out these entries, answers already filled in.
## Input Lab note: need Ratio for CN1CC=C(c2ccccc2)CC1 on Amine oxidase [flavin-containing] A (Homo sapiens, UniProt P21397), anyone have it?
## Output 143

## Input Lab note: need Ratio for CN1CC=C(c2cccc3ccccc23)CC1 on Amine oxidase [flavin-containing] A (Homo sapiens, UniProt P21397), anyone have it?
## Output 862

## Input Lab note: need Ratio for CN1CC=C(c2ccccc2-c2ccccc2)CC1 on Amine oxidase [flavin-containing] A (Homo sapiens, UniProt P21397), anyone have it?
## Output 892

// below: Ratio requested for another compound
## Input Lab note: need Ratio for CN1CC=C(c2ccc3ccccc3c2)CC1 on Amine oxidase [flavin-containing] A (Homo sapiens, UniProt P21397), anyone have it?
## Output 443

###

# tested-on: Amine oxidase [flavin-containing] B (Bos taurus)
# experimental-protocol: Tested for Kinetic data against the monoamine oxidase B catalyzed oxidation.
assay-metric: Vmax / Km (M⁻¹ s⁻¹)
One number for each entry, in M⁻¹ s⁻¹.

## Input Lab note: need Vmax / Km for CCc1ccccc1C1=CCN(C)CC1 on Amine oxidase [flavin-containing] B (Bos taurus), anyone have it?
## Output 4920

## Input Lab note: need Vmax / Km for Cc1ccccc1C1=CCN(C)CC1 on Amine oxidase [flavin-containing] B (Bos taurus), anyone have it?
## Output 21470

## Input Lab note: need Vmax / Km for CC(C)c1ccccc1C1=CCN(C)CC1 on Amine oxidase [flavin-containing] B (Bos taurus), anyone have it?
## Output 850

## Input Lab note: need Vmax / Km for CN1CC=C(c2c[nH]c3ccccc23)CC1.O=C(O)C(=O)O on Amine oxidase [flavin-containing] B (Bos taurus), anyone have it?
## Output 6620

Quick batch: Vmax / Km for everything below.
1. COc1cccc(C2=CCN(C)CC2)c1
2. Cc1cccc(C2=CCN(C)CC2)c1

## Output
[15600, 10800]

###

Answer each item with its documented Vmax / Km.
# tested-on: Amine oxidase [flavin-containing] A (Homo sapiens)
# experimental-protocol: Tested for Kinetic data against the monoamine oxidase A catalyzed oxidation.
Answers are plain numbers, in M⁻¹ s⁻¹.

Check out these entries, answers already filled in.
## Input Consider the compound Cc1cccc(C2=CCN(C)CC2)c1 and give its measured Vmax / Km.
## Output 1270

## Input Consider the compound CC(C)c1ccccc1C1=CCN(C)CC1 and give its measured Vmax / Km.
## Output 18700

## Input Consider the compound CN1CC=C(c2cccc(Oc3ccccc3)c2)CC1 and give its measured Vmax / Km.
## Output 92800

## Input Consider the compound Cc1ccccc1C1=CCN(C)CC1 and give its measured Vmax / Km.
## Output 9800

// below: Vmax / Km requested for another compound
## Input Consider the compound CCc1ccccc1C1=CCN(C)CC1 and give its measured Vmax / Km.
## Output 11500
